Data credit: patent US5202315A

# Test system: Staphylococcus aureus ATCC 10537
# runDescription: Antibacterial activity, MIC
# Assay type: cell-based
# studyConditions: ATCC10537, ATCC 10537, agar two-fold dilution, 37° C., 20 hours, read-out: MIC
assayEndpoint: MIC

>>> observedvalue("CC[n+]1c(N)cc(N)nc1SCC1=C(C(=O)[O-])N2C(=O)C(NC(=O)/C(=N\\OC(C)(C)C(=O)O)c3csc(N)n3)C2SC1 (stereo not drawn)")
"2 mg/L"
>>> observedvalue("CC(C)(O/N=C(\\C(=O)NC1C(=O)N2C(C(=O)[O-])=C(CSc3nc(N)cc(N)[n+]3N)CSC12)c1nsc(N)n1)C(=O)O (stereo not drawn)")
"8 mg/L"
>>> observedvalue("C=CC[n+]1c(N)cc(N)nc1SCC1=C(C(=O)[O-])N2C(=O)C(NC(=O)/C(=N\\OCC(=O)O)c3csc(N)n3)C2SC1 (stereo not drawn)")
"2 mg/L"
>>> observedvalue("CC(C)(O/N=C(\\C(=O)NC1C(=O)N2C(C(=O)[O-])=C(CSc3nc(N)cc(N)[n+]3N)CS[C@H]12)c1csc(N)n1)C(=O)O (stereo partly drawn)")
"2 mg/L"
>>> observedvalue("CCC[n+]1c(N)cc(N)nc1SCC1=C(C(=O)[O-])N2C(=O)C(NC(=O)/C(=N\\OC(C)C(=O)O)c3csc(N)n3)C2SC1 (stereo not drawn)")
"2 mg/L"
>>> observedvalue("C#CCO/N=C(\\C(=O)NC1C(=O)N2C(C(=O)[O-])=C(CSc3nc(N)cc(N)[n+]3N)CSC12)c1csc(N)n1 (stereo not drawn)")
"0.25 mg/L"

====

Reported MIC for target or system Escherichia coli ATCC 10536, by entry.
assayEndpoint: MIC (µg/mL)

>>> observedvalue("C[n+]1c(N)cc(N)nc1SCC1=C(C(=O)[O-])N2C(=O)C(NC(=O)/C(=N\\OC(C)(C)C(=O)O)c3nsc(N)n3)C2SC1 (stereo not drawn)")
0.13
>>> observedvalue("CCO/N=C(\\C(=O)NC1C(=O)N2C(C(=O)[O-])=C(CSc3nc(N)cc(N)[n+]3C)CSC12)c1nsc(N)n1 (stereo not drawn)")
0.13
>>> observedvalue("C=CCO/N=C(\\C(=O)NC1C(=O)N2C(C(=O)[O-])=C(CSc3nc(N)cc(N)[n+]3CC)CSC12)c1csc(N)n1 (stereo not drawn)")
0.13

====

# runDescription: In-vivo absorbency (plasma concentrations & pharmacokinetic parameters)
# Set-up: species or system SD rat (male)
# studyConditions: plasma; 0.5 min; SD male rat, iv 20 mg/kg; read-out: Plasma Conc.
assayEndpoint: concentration at 0.5 min (µg/mL)

>>> observedvalue("Cc1c(N)nc(SCC2=C(C(=O)[O-])N3C(=O)C(NC(=O)/C(=N\\OC(C)(C)C(=O)O)c4csc(N)n4)C3SC2)[n+](N)c1N (stereo not shown) [Compound I-34]")
181
>>> observedvalue("CC[n+]1c(SCC2=C(C(=O)[O-])N3C(=O)C(NC(=O)/C(=N\\OC(C)(C)C(=O)O)c4csc(N)n4)C3SC2)nc(N)c(C)c1N (stereo not shown) [Compound I-32]")
162
>>> observedvalue("CCc1c(N)nc(SCC2=C(C(=O)[O-])N3C(=O)C(NC(=O)/C(=N\\OC(C)(C)C(=O)O)c4csc(N)n4)C3SC2)[n+](CC)c1N (stereo not shown) [Compound I-33]")
194
>>> observedvalue("CCc1c(N)nc(SCC2=C(C(=O)[O-])N3C(=O)C(NC(=O)/C(=N\\OC(C)(C)C(=O)O)c4csc(N)n4)C3SC2)[n+](C)c1N (stereo not shown) [Compound I-31]")
208

====

# runDescription: In-vivo absorbency (plasma concentrations & pharmacokinetic parameters)
# Set-up: species or system SD rat (male)
# studyConditions: rat, in vivo, iv, 20 mg/kg
assayEndpoint: concentration at 2.5 min (µg/mL)

>>> observedvalue("CC(C)(O/N=C(\\C(=O)N[C@@H]1C(=O)N2C(C(=O)[O-])=C(C[n+]3ccccc3)CS[C@H]12)c1csc(N)n1)C(=O)O [Ceftazidime, reference compound]")
94

====

# System: Pseudomonas aeruginosa
# runDescription: Antibacterial activity against clinically isolated strains, MIC
# Format: cell-based
# studyConditions: 54 clinical isolates, broth microdilution test
MIC50 values for the compounds below.
assayEndpoint: MIC50 (µg/mL)

>>> observedvalue("C#CCO/N=C(\\C(=O)NC1C(=O)N2C(C(=O)[O-])=C(CSc3nc(N)cc(N)[n+]3CC)CSC12)c1csc(N)n1 (stereo not drawn) [Compound I-47]")
4
>>> observedvalue("CC[n+]1c(N)cc(N)nc1SCC1=C(C(=O)[O-])N2C(=O)C(NC(=O)/C(=N\\OC(C)C(=O)O)c3csc(N)n3)C2SC1 (stereo not drawn) [Compound I-5]")
4
>>> observedvalue("Cc1c(N)nc(SCC2=C(C(=O)[O-])N3C(=O)C(NC(=O)/C(=N\\OC(C)(C)C(=O)O)c4csc(N)n4)C3SC2)[n+](C)c1N (stereo not drawn) [Compound I-30]")
2
>>> observedvalue("CC[n+]1c(N)cc(N)nc1SCC1=C(C(=O)[O-])N2C(=O)C(NC(=O)/C(=N\\OC(C)(C)C(=O)O)c3csc(N)n3)C2SC1 (stereo not drawn) [Compound I-2]")
2
>>> observedvalue("C#CCO/N=C(\\C(=O)NC1C(=O)N2C(C(=O)[O-])=C(CSc3nc(N)cc(N)[n+]3C)CSC12)c1csc(N)n1 (stereo not drawn) [Compound I-46]")
4
>>> observedvalue("CCO/N=C(\\C(=O)NC1C(=O)N2C(C(=O)[O-])=C(CSc3nc(N)cc(N)[n+]3N)CSC12)c1nsc(N)n1 (stereo not drawn) [Compound I-17]")
4

====

# runDescription: In-vivo absorbency (plasma concentrations & pharmacokinetic parameters)
# Parameters: species or system SD rat (male)
# studyConditions: rat, in vivo, iv, 20 mg/kg
assayEndpoint: concentration at 5 min (µg/mL)

>>> observedvalue("CC(C)(O/N=C(\\C(=O)N[C@@H]1C(=O)N2C(C(=O)[O-])=C(C[n+]3ccccc3)CS[C@H]12)c1csc(N)n1)C(=O)O [Ceftazidime, reference compound]")
71

====

# System: Enterobacter aerogenes ATCC 29751
# runDescription: Antibacterial activity, MIC
# Type: cell-based
# studyConditions: Klebsiella aerogenes, ATCC29751; ATCC 29751; agar two-fold dilution, 37° C., 20 hours; read-out: MIC
Here, each record is paired with measured MIC data.
assayEndpoint: MIC (µg/mL)

>>> observedvalue("CCCC[n+]1c(N)cc(N)nc1SCC1=C(C(=O)[O-])N2C(=O)C(NC(=O)/C(=N\\OC(C)(C)C(=O)O)c3nsc(N)n3)C2SC1 (stereo not shown)")
1
>>> observedvalue("CO/N=C(\\C(=O)NC1C(=O)N2C(C(=O)[O-])=C(CSc3nc(N)cc(N)[n+]3C)CSC12)c1nsc(N)n1 (stereo not shown)")
1
>>> observedvalue("CC(C)(O/N=C(\\C(=O)NC1C(=O)N2C(C(=O)[O-])=C(CSc3nc(N)cc(N)[n+]3N)CSC12)c1nsc(N)n1)C(=O)O (stereo not shown)")
1
>>> observedvalue("CCO/N=C(\\C(=O)NC1C(=O)N2C(C(=O)[O-])=C(CSc3nc(N)cc(N)[n+]3C)CSC12)c1nsc(N)n1 (stereo not shown)")
0.25
>>> observedvalue("CCO/N=C(\\C(=O)NC1C(=O)N2C(C(=O)[O-])=C(CSc3nc(N)cc(N)[n+]3CC)CSC12)c1csc(N)n1 (stereo not shown)")
0.5
>>> observedvalue("C#CCO/N=C(\\C(=O)NC1C(=O)N2C(C(=O)[O-])=C(CSc3nc(N)cc(N)[n+]3C)CSC12)c1csc(N)n1 (stereo not shown)")
0.25
>>> observedvalue("CCO/N=C(\\C(=O)NC1C(=O)N2C(C(=O)[O-])=C(CSc3nc(N)cc(N)[n+]3N)CSC12)c1csc(N)n1 (stereo not shown)")
0.25
>>> observedvalue("C=CCO/N=C(\\C(=O)NC1C(=O)N2C(C(=O)[O-])=C(CSc3nc(N)cc(N)[n+]3CC)CSC12)c1csc(N)n1 (stereo not shown)")
0.5
>>> observedvalue("CC(C)(O/N=C(\\C(=O)NC1C(=O)N2C(C(=O)[O-])=C(CSc3nc(N)cc(N)[n+]3-c3ccccc3)CSC12)c1csc(N)n1)C(=O)O (stereo not shown)")
0.5
>>> observedvalue("C#CCO/N=C(\\C(=O)NC1C(=O)N2C(C(=O)[O-])=C(CSc3nc(N)cc(N)[n+]3N)CSC12)c1csc(N)n1 (stereo not shown)")
0.25
>>> observedvalue("CC[n+]1c(SCC2=C(C(=O)[O-])N3C(=O)C(NC(=O)/C(=N\\OC(C)(C)C(=O)O)c4csc(N)n4)C3SC2)nc(N)c(C)c1N (stereo not shown)")
2
>>> observedvalue("CC[n+]1c(N)cc(N)nc1SCC1=C(C(=O)[O-])N2C(=O)C(NC(=O)/C(=N\\OC)c3nsc(N)n3)C2SC1 (stereo not shown)")
1
>>> observedvalue("CC[n+]1c(N)cc(N)nc1SCC1=C(C(=O)[O-])N2C(=O)C(NC(=O)/C(=N\\OC(C)(C)C(=O)O)c3csc(N)n3)C2SC1 (stereo not shown)")
2
